Values from patent US7893074B2

target: IGF-IR (Homo sapiens); assay: Cellular Capture ELISA of IGF-I induced autophosphorylation of the IGF-IR; settings: read-out: IGF-1R IC50
Sequence (P08069 31-1367): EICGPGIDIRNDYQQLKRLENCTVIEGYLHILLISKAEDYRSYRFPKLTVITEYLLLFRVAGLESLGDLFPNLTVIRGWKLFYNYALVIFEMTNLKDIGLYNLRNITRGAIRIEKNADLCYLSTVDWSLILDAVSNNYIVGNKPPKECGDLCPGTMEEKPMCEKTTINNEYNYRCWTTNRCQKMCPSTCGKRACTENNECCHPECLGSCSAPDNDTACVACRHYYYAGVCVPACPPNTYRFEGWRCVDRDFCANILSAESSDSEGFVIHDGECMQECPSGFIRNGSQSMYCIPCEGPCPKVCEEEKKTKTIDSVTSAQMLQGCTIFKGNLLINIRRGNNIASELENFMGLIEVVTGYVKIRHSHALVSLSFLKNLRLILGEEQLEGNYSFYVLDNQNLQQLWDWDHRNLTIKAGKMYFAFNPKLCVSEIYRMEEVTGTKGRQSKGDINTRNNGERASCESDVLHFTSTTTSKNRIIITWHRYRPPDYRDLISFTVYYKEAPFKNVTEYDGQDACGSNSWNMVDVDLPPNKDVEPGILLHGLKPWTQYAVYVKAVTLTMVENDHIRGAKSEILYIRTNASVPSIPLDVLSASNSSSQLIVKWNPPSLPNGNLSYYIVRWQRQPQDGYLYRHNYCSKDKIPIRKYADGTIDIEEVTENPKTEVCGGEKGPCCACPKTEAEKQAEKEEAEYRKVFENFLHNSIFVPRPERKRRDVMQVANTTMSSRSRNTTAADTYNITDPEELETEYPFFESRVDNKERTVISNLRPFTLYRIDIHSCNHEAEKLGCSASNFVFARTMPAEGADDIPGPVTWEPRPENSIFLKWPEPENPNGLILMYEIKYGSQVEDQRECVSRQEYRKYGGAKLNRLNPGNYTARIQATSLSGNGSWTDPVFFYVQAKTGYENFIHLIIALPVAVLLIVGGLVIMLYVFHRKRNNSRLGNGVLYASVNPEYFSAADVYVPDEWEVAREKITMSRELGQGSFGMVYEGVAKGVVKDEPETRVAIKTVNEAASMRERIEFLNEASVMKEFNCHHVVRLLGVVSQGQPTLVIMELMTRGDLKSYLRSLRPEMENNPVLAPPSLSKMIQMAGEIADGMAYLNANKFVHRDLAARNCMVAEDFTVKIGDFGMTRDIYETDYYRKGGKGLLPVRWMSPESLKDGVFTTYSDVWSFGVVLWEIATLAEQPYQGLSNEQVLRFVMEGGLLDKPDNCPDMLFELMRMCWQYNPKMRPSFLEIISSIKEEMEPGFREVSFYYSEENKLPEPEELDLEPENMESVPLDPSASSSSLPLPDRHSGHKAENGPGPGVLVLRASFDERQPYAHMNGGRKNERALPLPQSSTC
Assign IC50 to each entry below.
Give bare numbers, in nM.

Batch: IC50 for all items listed.
1. CCNC1CCN(c2ccc(Nc3ncc(Cl)c(Nc4ccccc4S(=O)(=O)NC(C)C)n3)c(OC)c2)C1 (stereo not drawn)
2. CCCCS(=O)(=O)c1ccccc1Nc1nc(Nc2ccc(N3CCOCC3)cc2OC)ncc1Cl
3. CNS(=O)(=O)c1ccccc1Nc1nc(Nc2ccc(OC3CCN(C)CC3)cc2OC)ncc1Br

A:
[910, 280, 130]

---

target: Focal Adhesion Kinase (FAK) (Homo sapiens); assay: FAK assay system (Focal Adhesion Kinase inhibition); assay type: biochemical; settings: read-out: FAK IC50
Sequence (Q05397 384-706): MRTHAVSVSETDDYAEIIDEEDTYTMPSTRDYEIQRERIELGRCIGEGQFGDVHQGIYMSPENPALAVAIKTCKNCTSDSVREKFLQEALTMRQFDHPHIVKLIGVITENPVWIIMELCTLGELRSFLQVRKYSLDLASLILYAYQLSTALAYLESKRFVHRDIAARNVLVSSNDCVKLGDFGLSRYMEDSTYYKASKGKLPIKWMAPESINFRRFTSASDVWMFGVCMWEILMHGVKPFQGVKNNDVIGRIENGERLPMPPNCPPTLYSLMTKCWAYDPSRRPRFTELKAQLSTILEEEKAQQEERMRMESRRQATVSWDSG
metric.name: pIC50
Numbers only, as −log10 of the molar value.

Answered examples (5):
CNC(=O)c1ccccc1Nc1nc(Nc2ccc(N3CCC(OCCOC)CC3)cc2OC)ncc1Cl [Example 7-10]; 8.18
CCS(=O)(=O)c1ccccc1Nc1nc(Nc2ccc(N3CCCC(C(N)=O)C3)cc2OC)ncc1Cl (stereo not shown) [Example 27-6]; 9.00
CNC(=O)c1cc(F)ccc1Nc1nc(Nc2ccc(N3CCOCC3)cc2OC)ncc1Cl [Example 11-1]; 8.05
COc1cc(F)ccc1Nc1ncc(Cl)c(Nc2ccccc2S(=O)(=O)NCC(F)(F)F)n1 [Example 16C]; 7.55
COc1cc(N2CCC[C@@H](C(N)=O)C2)ccc1Nc1ncc(Cl)c(Nc2ccccc2S(=O)(=O)C(C)C)n1 [Example 28-28]; 8.28

Hey, quick one: what's pIC50 for each of these?
1. CCOc1ccc(-c2ccccc2)cc1Nc1ncc(Br)c(Nc2ccccc2S(=O)(=O)NC)n1 [Example 3-29]
2. COc1cc(CN2CCN(C)CC2)ccc1Nc1ncc(Cl)c(Nc2ccccc2S(=O)(=O)C2CC2)n1 [Example 30-5]
3. CCC(CC)NS(=O)(=O)c1ccccc1Nc1nc(Nc2ccc(OCCN3CCOCC3)cc2OC)ncc1Cl [Example 23-8]
4. CCCS(=O)(=O)c1ccccc1Nc1nc(Nc2ccc(F)cc2OC)ncc1Cl [Example 26-30]
5. CNC1CCN(c2ccc(Nc3ncc(Cl)c(Nc4ccccc4S(=O)(=O)NC(C)C)n3)c(OC)c2F)C1 (stereo not shown) [Example 19-12]
6. CNS(=O)(=O)c1ccccc1Nc1nc(Nc2cccc(OC)c2OC)ncc1Br [Example 3-14]
7. COc1cc(N2CCC(NC(C)=O)C2)ccc1Nc1ncc(Cl)c(Nc2ccccc2S(=O)(=O)NC2CCC2)n1 (stereo not shown) [Example 24-3]

A:
7.05
8.07
8.17
8.36
8.05
7.27
9.00
